Exercise: for every item that follows, state its recorded EC50.
- SYSTEM TESTED: acetylcholine muscarinic M1 receptor (Homo sapiens)
- Construct: expressed in transfected cells; host or cells: CHOnfat cells (CHO cells with an NFAT reporter) expressing hM1, kept under Geneticin selection
- Sequence (P11229 1-460): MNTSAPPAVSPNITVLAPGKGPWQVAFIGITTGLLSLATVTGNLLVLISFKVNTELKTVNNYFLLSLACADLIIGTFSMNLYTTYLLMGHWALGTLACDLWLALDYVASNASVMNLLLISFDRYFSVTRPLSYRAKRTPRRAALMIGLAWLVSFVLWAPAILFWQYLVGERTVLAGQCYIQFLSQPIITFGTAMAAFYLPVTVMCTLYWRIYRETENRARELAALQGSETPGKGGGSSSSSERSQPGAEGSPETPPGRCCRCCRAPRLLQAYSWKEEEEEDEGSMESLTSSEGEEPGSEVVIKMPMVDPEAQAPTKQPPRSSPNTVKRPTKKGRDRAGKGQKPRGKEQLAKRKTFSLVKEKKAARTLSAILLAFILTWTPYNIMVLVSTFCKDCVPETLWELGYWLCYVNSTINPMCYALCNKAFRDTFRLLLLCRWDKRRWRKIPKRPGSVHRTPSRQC
- METHOD NOTES: muscarinic FLIPR assay: intracellular calcium in CHOnfat/hM1 cells, potentiation of EC20 acetylcholine
- Type: cell-based
- TEST CONDITIONS: Table 3; inflection point calculated from the FLIPR values; EC20 acetylcholine (3 nM final); read-out: IP Value
Answers are plain numbers, in nM.

Solved entries:
[
  {
    "SMILES REPRESENTATION": "O=C1c2cc(CN3CCC(F)(c4ccccn4)CC3)c3ccccc3c2CN1[C@H]1CCCC[C@@H]1O",
    "READING UNIT": "nM",
    "RESULT VALUE": 58
  },
  {
    "SMILES REPRESENTATION": "COc1cccc(C2(C#N)CCN(Cc3cc4c(c5ccccc35)CN([C@H]3CCCC[C@@H]3O)C4=O)CC2)n1",
    "READING UNIT": "nM",
    "RESULT VALUE": 65
  },
  {
    "SMILES REPRESENTATION": "O=C1c2cc(CN3CCC(F)(F)CC3)c3cccnc3c2CN1[C@H]1CCOC[C@@H]1O",
    "READING UNIT": "nM",
    "RESULT VALUE": 147
  }
]

Now, please, on to the next compound.
Consider the compound C=CC1(F)CCN(Cc2cc3c(c4ncccc24)CN([C@H]2CCCC[C@@H]2O)C3=O)CC1 and give its measured EC50. 420

Where these numbers come from: patent US9206200B2
